Items are presented alongside their recorded IC50.
# STUDY TARGET: recombinant human CLK3 (Homo sapiens, UniProt P49761)
# Sequence (P49761 whole entry): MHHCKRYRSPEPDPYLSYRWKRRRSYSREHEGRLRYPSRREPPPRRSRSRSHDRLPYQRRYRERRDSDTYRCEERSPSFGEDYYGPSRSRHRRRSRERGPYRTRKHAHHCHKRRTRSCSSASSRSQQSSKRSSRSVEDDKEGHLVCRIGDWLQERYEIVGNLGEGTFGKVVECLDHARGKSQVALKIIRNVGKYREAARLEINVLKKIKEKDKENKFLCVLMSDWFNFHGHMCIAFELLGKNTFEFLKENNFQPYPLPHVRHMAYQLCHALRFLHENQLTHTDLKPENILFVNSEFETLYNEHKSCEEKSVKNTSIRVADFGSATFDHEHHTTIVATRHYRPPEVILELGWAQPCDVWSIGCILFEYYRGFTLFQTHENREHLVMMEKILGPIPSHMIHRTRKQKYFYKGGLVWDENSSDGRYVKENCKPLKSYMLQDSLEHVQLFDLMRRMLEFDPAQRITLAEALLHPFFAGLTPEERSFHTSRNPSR
# PROCEDURE DETAILS: CLK3 kinase assay (LANCE Ultra)
# ASSAY CONTEXT: CLK3 0.5 nM, ATP 300 μM, 3 hours at 30° C.

{"MOLECULE": "CN(Cc1cocn1)c1c(O[C@H]2CC[C@H](N)CC2)ccc2c1CC(C)(C)c1c(N)ncnc1-2 [Example 105]", "VALUE OBSERVED": "101 to 1000 nM"}
{"MOLECULE": "COCCN(C)c1c(O[C@H]2CC[C@@H](N)CC2)ccc2c1CC1(CCCC1)c1c(N)ncnc1-2 [Example 75]", "VALUE OBSERVED": "< 30 nM"}
{"MOLECULE": "CN(C(=O)CO)c1c(O[C@H]2CC[C@H](N)CC2)ccc2c1CC(C)(C)c1c(N)ncnc1-2 [Example 41]", "VALUE OBSERVED": "101 to 1000 nM"}
{"MOLECULE": "CN1CCN(c2ccc3c(c2N(C)CCC#N)CC(C)(C)c2c(N)ncnc2-3)CC1 [Example 118]", "VALUE OBSERVED": "< 30 nM"}
{"MOLECULE": "CC1(C)Cc2c(ccc(O[C@H]3CC[C@H](N)CC3)c2N2CCC(C#N)C2)-c2ncnc(N)c21 (single isomer, unassigned) [Example 50]", "VALUE OBSERVED": "< 30 nM"}
{"MOLECULE": "CC(C)N(C)c1c(O[C@H]2CC[C@H](N)CC2)ccc2c1CC(C)(C)c1c(N)ncnc1-2 [Example 102]", "VALUE OBSERVED": "< 30 nM"}

response.value for CCN(C)c1c(O[C@H]2CC[C@H](N)CC2)ccc2c1CC(C)(C)c1c(N)ncnc1-2 [Example 67] (field: IC50) = < 30 nM

----------
Each entry below carries its reported IC50.
# STUDY TARGET: recombinant human CLK3 (Homo sapiens)
# PROCEDURE DETAILS: CLK3 kinase assay (LANCE Ultra)
# ASSAY CONTEXT: CLK3 0.5 nM, ATP 300 μM, 3 hours at 30° C.

Some solved entries appear below for comparison.
{"SMILES REPR": "CN(CC(C)(C)C(N)=O)c1c(O[C@H]2CC[C@H](N)CC2)ccc2c1CC(C)(C)c1c(N)ncnc1-2", "IC50": "0.03 to 0.1 µM"}
{"SMILES REPR": "CN(c1c(O[C@H]2CC[C@H](N)CC2)ccc2c1CC(C)(C)c1c(N)ncnc1-2)S(=O)(=O)CCC#N", "IC50": "< 0.03 µM"}
{"SMILES REPR": "CC1(C)Cc2c(ccc(O[C@H]3CC[C@H](N)CC3)c2OCCC#N)-c2ncnc(N)c21", "IC50": "< 0.03 µM"}

get_value(item= CC(C)CN(C)c1c(O[C@H]2CC[C@H](N)CC2)ccc2c1CC(C)(C)c1c(N)ncnc1-2 , readout=IC50) returns 0.03 to 0.1 µM

----------
Listed below: IC50 values for each entry.
# STUDY TARGET: recombinant human CLK3 (Homo sapiens, UniProt P49761)
# PROCEDURE DETAILS: CLK3 kinase assay (LANCE Ultra)
# ASSAY CONTEXT: CLK3 0.5 nM, ATP 300 μM, 3 hours at 30° C.

{"SMILES REPR": "CN(CCN)c1c(O[C@H]2CC[C@H](N)CC2)ccc2c1CC(C)(C)c1c(N)ncnc1-2", "IC50": "< 30 nM"}
{"SMILES REPR": "COCCNc1c(O[C@H]2CC[C@H](N)CC2)ccc2c1CC1(CCCC1)c1c(N)ncnc1-2", "IC50": "101 to 1000 nM"}
{"SMILES REPR": "CN(CCC#N)c1cccc2c1CC(C)(C)c1c(N)ncnc1-2", "IC50": "30 to 100 nM"}
{"SMILES REPR": "CC1(C)Cc2c(ccc(O[C@H]3CC[C@H](N)CC3)c2N2CCCCC2)-c2ncnc(N)c21", "IC50": "< 30 nM"}
{"SMILES REPR": "CNc1c(O[C@H]2CC[C@H](N)CC2)ccc2c1CC(C)(C)c1c(N)ncnc1-2", "IC50": "30 to 100 nM"}
{"SMILES REPR": "CN(CC#N)c1c(O[C@H]2CC[C@H](N)CC2)ccc2c1CC(C)(C)c1c(N)ncnc1-2", "IC50": "< 30 nM"}
{"SMILES REPR": "COCCN(C)c1c(O[C@H]2CC[C@H](N)CC2)ccc2c1CC1(CCCC1)c1c(N)ncnc1-2", "IC50": "101 to 1000 nM"}

Now consider a different compound.
Record CC1(C)Cc2c(ccc(O[C@H]3CC[C@H](N)CC3)c2N2CCOCC2)-c2ncnc(N)c21 has recombinant human CLK3 (Homo sapiens, UniProt P49761) IC50 equal to 30 to 100 nM

----------
# STUDY TARGET: recombinant human CLK3 (Homo sapiens)
# Construct: purchased Thermo Fisher Scientific PV3826
# PROCEDURE DETAILS: CLK3 kinase assay (LANCE Ultra)
# Assay type: biochemical
# ASSAY CONTEXT: CLK3 0.5 nM, ATP 300 μM, 3 hours at 30° C.
pIC50: −log10 of the molar value.
Below, each of the molecules is paired with its reported pIC50 value.

Please review the following examples before continuing.
{"MOLECULE": "CC1(C)Cc2c(ccc(Br)c2N(CCC#N)C[C@@H]2CNC(=O)O2)-c2ncnc(N)c21", "pIC50": "> 7.52"}
{"MOLECULE": "CC1(C)Cc2c(ccc(O[C@H]3CC[C@H](N)CC3)c2N2CCCS2(=O)=O)-c2ncnc(N)c21", "pIC50": "> 7.52"}
{"MOLECULE": "CN(CCCC#N)c1c(O[C@H]2CC[C@H](N)CC2)ccc2c1CC(C)(C)c1c(N)ncnc1-2", "pIC50": "> 7.52"}
{"MOLECULE": "COc1ccn(-c2c(O[C@H]3CC[C@H](N)CC3)ccc3c2CC(C)(C)c2c(N)ncnc2-3)c1", "pIC50": "7.00 to 7.52"}
{"MOLECULE": "CCOCCN(C)c1c(O[C@H]2CC[C@H](N)CC2)ccc2c1CC(C)(C)c1c(N)ncnc1-2", "pIC50": "6.00 to 7.00"}
{"MOLECULE": "CN(Cc1c[nH]cn1)c1c(O[C@H]2CC[C@H](N)CC2)ccc2c1CC(C)(C)c1c(N)ncnc1-2", "pIC50": "7.00 to 7.52"}

recombinant human CLK3 (Homo sapiens) pIC50 of CCN(CC)c1c(O[C@H]2CC[C@H](N)CC2)ccc2c1CC(C)(C)c1c(N)ncnc1-2 is > 7.52

Hey, recombinant human CLK3 (Homo sapiens) data for CCCN(CCO)c1c(O[C@H]2CC[C@@H](N)CC2)ccc2c1CC(C)(C)c1c(N)ncnc1-2 : pIC50 came out at > 7.52

Kindly note: recombinant human CLK3 (Homo sapiens), COc1ccc2c(c1N)CC(C)(C)c1c(N)ncnc1-2 , pIC50 value reported: 7.00 to 7.52

Known value: recombinant human CLK3 (Homo sapiens) pIC50 of the molecule CN(CCNS(C)(=O)=O)c1c(O[C@H]2CC[C@H](N)CC2)ccc2c1CC(C)(C)c1c(N)ncnc1-2 equals 6.00 to 7.00

Entry CC1(C)Cc2c(ccc(O[C@H]3CC[C@H](N)CC3)c2NCC2(C#N)CC2)-c2ncnc(N)c21 : pIC50 on recombinant human CLK3 (Homo sapiens) = 6.00 to 7.00

The molecule CC1(C)Cc2c(ccc3c2NCCO3)-c2ncnc(N)c21 , when measured on recombinant human CLK3 (Homo sapiens), yielded pIC50 of 6.00 to 7.00

Recorded pIC50 for CN(C)c1c(O[C@H]2CC[C@H](N)CC2)ccc2c1CC(C)(C)c1c(N)ncnc1-2 on recombinant human CLK3 (Homo sapiens) was > 7.52

----------
# STUDY TARGET: recombinant human CLK3 (Homo sapiens, UniProt P49761)
# PROCEDURE DETAILS: CLK3 kinase assay (LANCE Ultra)
# ASSAY CONTEXT: CLK3 0.5 nM, ATP 300 μM, 3 hours at 30° C.
pIC50: −log10 of the molar value.
pIC50 values for the compounds below.

{"COMPOUND": "CC1(C)Cc2c(ccc(O[C@H]3CC[C@H](N)CC3)c2-n2cccc2)-c2ncnc(N)c21", "STUDY TARGET": "recombinant human CLK3 (Homo sapiens, UniProt P49761)", "pIC50": "> 7.52"}
{"COMPOUND": "CN(C)CCOc1ccc2c(c1N(C)CCC#N)CC(C)(C)c1c(N)ncnc1-2", "STUDY TARGET": "recombinant human CLK3 (Homo sapiens, UniProt P49761)", "pIC50": "> 7.52"}
{"COMPOUND": "COc1ccc2c(c1N(CCC#N)Cc1nnc(C(C)F)o1)CC(C)(C)c1c(N)ncnc1-2 (stereo not shown)", "STUDY TARGET": "recombinant human CLK3 (Homo sapiens, UniProt P49761)", "pIC50": "6.00 to 7.00"}

Observed pIC50, recombinant human CLK3 (Homo sapiens, UniProt P49761), COc1ccc2c(c1NCC[C@@H]1CNC(=O)O1)CC(C)(C)c1c(N)ncnc1-2 : 6.00 to 7.00

Record for CN(CCC#N)c1c(N2CCNCC2)ccc2c1CC(C)(C)c1c(N)ncnc1-2 under target or system recombinant human CLK3 (Homo sapiens, UniProt P49761): pIC50 reported as > 7.52

With recombinant human CLK3 (Homo sapiens, UniProt P49761) as the test system, COCCN[C@H]1CC[C@H](Oc2ccc3c(c2N(C)CCC#N)CC(C)(C)c2c(N)ncnc2-3)CC1 showed pIC50 of > 7.52

recombinant human CLK3 (Homo sapiens, UniProt P49761) pIC50 of CN(CC(C)(C)CO)c1c(O[C@H]2CC[C@H](N)CC2)ccc2c1CC(C)(C)c1c(N)ncnc1-2 is > 7.52

# pIC50 measured on recombinant human CLK3 (Homo sapiens, UniProt P49761) for item CC1(C)Cc2c(ccc(O[C@H]3CC[C@H](N)CC3)c2CCCC#N)-c2ncnc(N)c21 = > 7.52
